Assay: luminescent readout interference, potency – biochemical, luminescence, artefact control for SENP inhibitor project, dose response (AID 488920)
Conditions: luminescence interference counterscreen, spectral interferers
Activity calls are given as the source filed them. Rule as the data show it: active = IC50 below about 3 µM; inactive = the rest.
Select the correct class. Options are 1 (yes) for active, 0 (no) for inactive and nothing else.

Query: recorded result category for COc1cc(C(=O)c2nccc3cc(OC)c(OC)cc23)c([N+](=O)[O-])cc1OC in this test
0 (no)

Query: recorded result category for Cc1ccc(S(=O)(=O)/N=C2\C=C(Nc3cccc(C(=O)O)c3)C(=O)c3ccccc32)c(C)c1 in this test
0 (no)

Query: recorded result category for COc1ccc(C(=O)c2nccc3cc(OC)c(OC)cc23)cc1OC in this test
0 (no)

Query: recorded result category for CCC(C)n1c(NC(=O)c2ccccc2)c(C#N)c2nc3ccccc3nc21 (centres undefined) in this test
0 (no)

Query: recorded result category for CCn1c(O)c(N=Nc2ccc3ccccc3n2)c2ccccc21 in this test
1 (yes)

Query: recorded result category for Cc1ccc(/C=C/c2nc3ccccc3c(=O)[nH]2)cc1 in this test
1 (yes)

Query: recorded result category for Cc1ccnc(Nc2nc(-c3ccccc3)cs2)c1 in this test
1 (yes)

Query: recorded result category for Cn1c(-c2ccccc2)cc2onc(-c3ccccc3)c2c1=O in this test
1 (yes)

Query: recorded result category for C/C(=N\OC(=O)c1ccc(Br)cc1)c1ccccn1 in this test
1 (yes)

Query: recorded result category for CCOc1ccc(/C=C2\CCc3ccccc3C2=O)cc1 in this test
1 (yes)

Query: recorded result category for O=c1[nH]c(Nc2ccccc2)cc2ccccc12 in this test
0 (no)

Query: recorded result category for Cc1ccc(C(=O)NNc2cc(N3CCCC3)nc(N3CCCC3)n2)cc1 in this test
0 (no)

Query: recorded result category for Cc1ccc(NC2=C/C(=N/S(=O)(=O)c3cccs3)c3ccccc3C2=O)cc1 in this test
0 (no)

Query: recorded result category for Cc1cc(C)nc(Nc2nc(-c3ccccc3)cs2)n1 in this test
1 (yes)
